biological target: recombinant F-protein (respiratory syncytial virus (RSV)) (UniProt P03420); assay: SPR Biacore T-200, antibody captured on protein A chip, F-protein as analyte
Sequence (P03420 whole entry): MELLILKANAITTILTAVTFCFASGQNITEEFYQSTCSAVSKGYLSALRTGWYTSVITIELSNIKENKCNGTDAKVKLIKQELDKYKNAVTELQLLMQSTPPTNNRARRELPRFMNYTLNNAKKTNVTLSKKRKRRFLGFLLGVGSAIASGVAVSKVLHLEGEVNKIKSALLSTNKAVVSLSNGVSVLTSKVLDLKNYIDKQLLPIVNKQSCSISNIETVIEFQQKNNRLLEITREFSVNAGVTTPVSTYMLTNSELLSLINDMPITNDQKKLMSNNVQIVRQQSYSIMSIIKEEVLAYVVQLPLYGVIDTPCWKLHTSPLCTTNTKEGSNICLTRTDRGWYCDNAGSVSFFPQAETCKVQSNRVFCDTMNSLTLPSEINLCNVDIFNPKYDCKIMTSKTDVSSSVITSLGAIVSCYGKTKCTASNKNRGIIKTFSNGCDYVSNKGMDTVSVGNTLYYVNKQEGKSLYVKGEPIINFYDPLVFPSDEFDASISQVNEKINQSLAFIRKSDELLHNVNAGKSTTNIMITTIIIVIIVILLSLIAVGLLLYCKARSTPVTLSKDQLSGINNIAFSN
readout label: kon (M⁻¹ s⁻¹)
One number for each entry, in M⁻¹ s⁻¹.

Below, 2 binders whose answers are already recorded.
Task: Return reported kon; argument: #12m (antibody, V domains shown) VH: EVQLVESGGGLVKPGGSLRLSCAGSGFAFSSYTMHWVRQAPGKGLEWVSSITGGSSYLDYAHSVKGRFTISRDNGQNSLFLQMNSLRTEDTAVYYCARDDYGSGSYSNYFDPWGQGTLVTVSS VL: QSVLTQPPSVSGAPGQRVTISCTGSSSNIGAGYDVHWYQQVPGTAPKLLIFGSTNRPSGVPDRFSGSKSGASASLAITGLQTEDEADYYCQSYDRSLSHVFGTGTKVTVLG
Result: 3.06e+06

Task: Return reported kon; argument: 12B11 (antibody, V domains shown) VH: EVQLVESGGGVVQPGRSLRLACAASGFTFNSYAMHWVRQAPGKGLEWVSSITGGSSYVDYSASVKGRFTISRDNAQSSLYLQMNSLRAEDTAVYYCARDMYGLGSYYSPNYFDPWGQGTLVTVSS VL: SYELTQPPSVSGAPGQRVTISCTGSSSNIGAGYDVHWYQQLPGRAPKLLIFANTNRPSGVPDRFSGSKSGTSASLAITGLQAEDEADYYCQSYDSSLSYVFGTGTKVTVLG
Result: 2.52e+06

Go through the items and report each one's kon.
1. 3H8 (antibody, V domains shown) VH: EVQLVESGGGLVKPGGSLRLSCAGSGFTFSSYTMHWVRQAPGKGLEWVSSITGGSSYVDYSASVKGRFTISRDNAQSSLYLQMNSLRAEDTAVYYCARDDYGSGSYSNWFDPWGRGTTVTVSS VL: QPVLTQPLSASGTPGQRVTISCTGSSSNIGAGYDVHWYQQLPGRAPKLLIFANTNRPSGVPDRFSGSKSGTSASLAITGLQAEDEADYYCQSYDRSLSHVFGTGTKVTVLG
2. 12A1 (antibody, V domains shown) VH: EVQLVESGGGLIQPGGSLRLSCAGSGFTFSSYTMHWVRQAPGKGLEWVSSITGGSSYVDYSASVKGRFTISRDNAQSSLYLQMNSLRAEDTAVYYCARDDYGSGSYSNWFDPWGQGTLVTVSS VL: QSVLTQPPSVSGAPGQRVTISCTGSSSDIGAGYDVHWYQQLPGTAPKLLIFANTNRPSGVPDRFSGSKSGASASLAITGLQADDEADYYCQSYDRSLSHVFGTGTKVTVLG
3. 10E7 (antibody, V domains shown) VH: EVQLVESGGGLVKPGGSLRLSCAASGFTFTSYRMHWVRQAPGKGLEWVSSITGGGNYIEYADSVKGRFTISRDNAKNSLDLQMNSLRAEDTAIYYCARDMYGLGSYYSPNYFDSWGQGTLVTVSS VL: QSVLTQPPSVSGAPGQRVTISCTGSSSNIGAGYDVHWYQQLPGRAPKLLIFANTNRPSGVPDRFSGSKSGASASLAITGLQADDEADYYCQSYDRSLSHVFGTGTKVTVLG

Result:
["1.53e+07", "2.8e+06", "2.03e+06"]
